Molecular target: human C5aR (Homo sapiens (Human), UniProt P21730)
Sequence (P21730 whole entry): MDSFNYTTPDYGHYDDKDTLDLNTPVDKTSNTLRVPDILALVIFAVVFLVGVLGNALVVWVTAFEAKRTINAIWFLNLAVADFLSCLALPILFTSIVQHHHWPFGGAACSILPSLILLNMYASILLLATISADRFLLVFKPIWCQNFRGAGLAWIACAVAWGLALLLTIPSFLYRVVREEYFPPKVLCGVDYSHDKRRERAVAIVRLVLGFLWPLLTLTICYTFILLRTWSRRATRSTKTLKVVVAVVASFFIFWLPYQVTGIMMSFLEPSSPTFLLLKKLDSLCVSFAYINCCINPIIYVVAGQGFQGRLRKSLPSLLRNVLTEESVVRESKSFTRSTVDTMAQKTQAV
Experiment: FLIPR assay: inhibition of C5a-mediated calcium mobilization
Conditions: stable cell line over expressing human C5aR & Gα15, human C5a at EC50 (0.1-0.25 nM)
Listing: pIC50 of selected compounds
// returns pIC50 (minus log10 of molar concentration), number only

The following compounds have reported results that may help.
[[record]]
compound = "CO[C@H]1C[C@H]2CC[C@@H](C1)N2c1nc(-c2c(C)ccc3[nH]nc(C)c23)nc2c1CN(c1c(F)c(C3CC3)nn1C)CC2"
system_under_test = "human C5aR (Homo sapiens (Human), UniProt P21730)"
test_readout = "pIC50"
readout_value = 8.70

[[record]]
compound = "[2H]C1([2H])c2c(C)cc(-c3c(CC)cccc3CC)nc2CC(C)N1c1cc(C(C)C)ccc1C (single isomer, unassigned) [Example 42-L]"
system_under_test = "human C5aR (Homo sapiens (Human), UniProt P21730)"
test_readout = "pIC50"
readout_value = 8.40


Which value of pIC50 has been reported for "CCn1nc(C2CC2)c(Cl)c1N1CCc2nc(-c3c(C)ccc4[nH]nc(C)c34)nc(N3CCOC[C@H]3C)c2C1" in the records?
8.05

----------
Listing: IC50 of selected compounds
Target: human C5aR (Homo sapiens (Human))
Test: FLIPR assay: inhibition of C5a-mediated calcium mobilization
Conditions: stable cell line over expressing human C5aR & Gα15, human C5a at EC50 (0.1-0.25 nM)
Field note: include the unit after the figure.

[[record]]
compound = "CO[C@H]1C[C@H]2CC[C@@H](C1)N2c1nc(-c2c(C)ccc3[nH]nc(C)c23)nc2c1CN(c1cc(C(C)C)ccc1C)CC2"
readout_value = "4 nM"

[[record]]
compound = "COc1ccc(C)c(N2CCc3nc(-c4c(C)cccc4C)nc(N4CC[C@@H](OC)C[C@H]4C)c3C2)c1"
readout_value = "2 nM"

[[record]]
compound = "CO[C@H]1CCN(c2nc(-c3cccc4[nH]cc(C)c34)nc3c2CN(c2cc(C(C)C)ccc2C)CC3)C[C@H]1C (racemic)"
readout_value = "16 nM"

[[record]]
compound = "Cc1ccc2[nH]nc(C)c2c1-c1nc2c(c(N3CC(N(C)C)C3)n1)CN(c1c(Cl)c(C3CC3)nn1C)CC2"
readout_value = "67 nM"


Which value of IC50 has been reported for "CCn1nc(C2CC2)c(Cl)c1N1CCc2nc(-c3c(C)ccc4[nH]nc(C)c34)nc(N3CC(N(C)C)C3)c2C1" in the records?
20 nM

Which value of IC50 has been reported for "CO[C@H]1C[C@H]2CC[C@@H](C1)N2c1nc(-c2c(C)cccc2C)nc2c1CN(c1cc(C3(C)COC3)ccc1C)CC2" in the records?
308 nM

Which value of IC50 has been reported for "Cc1cc(-c2c(C(C)C)ccc3[nH]ncc23)nc2c1CN(c1cc(C3CC3)nn1C)CC2" in the records?
20 nM

Which value of IC50 has been reported for "Cc1ccc(C(C)C)cc1N1CCc2nc(-c3cccc4[nH]cc(C)c34)nc(N3CCC[C@H](O)C3)c2C1" in the records?
12 nM

Which value of IC50 has been reported for "CNCCOc1nc(-c2c(C)ccc3[nH]nc(C)c23)nc2c1CN(c1cc(C(C)C)ccc1C)CC2" in the records?
31 nM

Which value of IC50 has been reported for "CO[C@H]1CCN(c2nc(-c3cccc4[nH]cc(C)c34)nc3c2CN(c2cc(C(C)C)ccc2C)CC3)C[C@@H]1C" in the records?
9 nM

Which value of IC50 has been reported for "CCc1cccc(CC)c1-c1cc(C)c2c(n1)CCN(c1nnnn1C)C2" in the records?
198 nM

Which value of IC50 has been reported for "Cc1ccc2[nH]nc(C)c2c1-c1nc2c(c(N3CCOC[C@H]3C)n1)CN(c1c(Cl)c(C3CC3)nn1C)CC2" in the records?
12 nM

----------
Test system: CD11b
Experiment: Human whole blood CD11b up-regulation assay
Type: cell-based
Details: Homo sapiens, 2 nM human C5a, CD15+ granulocytes, read-out: hCD11b IC50
Listing: IC50 of selected compounds
Field note: include the unit after the figure.

[[record]]
compound = "Cc1ccc(C(C)C)cc1N1CCc2nc(-c3c(C(C)C)ccc4[nH]ncc34)cc(C)c2C1 [Example 41-G]"
readout_value = "70 nM"

[[record]]
compound = "COc1ccc(C)c(N2CCc3nc(-c4c(C(C)C)ccc5[nH]ncc45)nc(N4CC[C@H](OC)C(C)(C)C4)c3C2)c1 [Example 19-AE]"
readout_value = "22 nM"

[[record]]
compound = "CO[C@H]1CCN(c2nc(-c3cccc4[nH]cc(C)c34)nc3c2CN(c2cc(C(C)C)ccc2C)CC3)C[C@@H]1C [Example 17-AY]"
readout_value = "45 nM"


Return IC50 measured with CD11b given this compound: CO[C@@H]1CCN(c2nc(-c3c(C)ccnc3C)nc3c2CN(c2cc(C(C)C)ccc2C)CC3)[C@H](C)C1 [Example 21-S]
180 nM

Return IC50 measured with CD11b given this compound: CO[C@H]1CCN(c2nc(-c3cccc4[nH]cc(C)c34)nc3c2CN(c2cc(C(C)C)ccc2C)CC3)CC1(C)C [Example 17-G]
114 nM

Return IC50 measured with CD11b given this compound: [2H]C1([2H])c2c(C)cc(-c3c(C)ccc4[nH]ncc34)nc2CCN1c1cc(C(C)C)ccc1C [Example 43-A]
178 nM

Return IC50 measured with CD11b given this compound: Cc1ccc(C(C)C)cc1N1CCc2nc(-c3cccc4[nH]cc(C)c34)nc(N3CC[C@H](O)[C@H](C)C3)c2C1 (racemic) [Example 17-AN]
423 nM

----------
Tested on: CD11b
Experiment: Human whole blood CD11b up-regulation assay
Format: cell-based
Conditions: Homo sapiens, 2 nM human C5a, CD15+ granulocytes, read-out: hCD11b IC50
pIC50: −log10 of the molar value.
Kind request: treat 7 as inclusive, so pIC50 at 7 or higher is 1, anything lower is -1.

[[record]]
compound = "CO[C@@H]1CCN(c2nc(-c3c(C)ccc4[nH]nc(C)c34)nc3c2CN(c2cc(C(F)(F)F)nn2C)CC3)[C@H](C)C1"
class_name = 1

[[record]]
compound = "Cc1ccc2[nH]nc(C)c2c1-c1nc2c(c(N3C[C@@H](O)[C@@H]3C)n1)CN(c1c(Cl)c(C3CC3)nn1C)CC2 (racemic)"
class_name = -1

[[record]]
compound = "Cc1ccc(C(C)C)cc1N1CCc2nc(-c3cccc4[nH]cc(C)c34)nc(N3CCN(S(C)(=O)=O)[C@H](C)C3)c2C1"
class_name = -1

[[record]]
compound = "CO[C@H]1CCN(c2nc(-c3c(C)ccc4[nH]nc(C)c34)nc3c2CN(c2cc(C(C)C)ccc2C)CC3)CC1(C)C"
class_name = 1

[[record]]
compound = "Cc1ccc2[nH]nc(C)c2c1-c1nc2c(c(N3CCOC[C@H]3C)n1)CN(c1c(F)c(C3CC3)nn1C)CC2"
class_name = 1


Form field: pIC50 at least 7? Entry: "CCc1cccc(CC)c1-c1cc(C)c2c(n1)CCN(c1cc(C(C)C)ccc1C)C2"
-1

Form field: pIC50 at least 7? Entry: Cc1ccc(C(C)C)cc1N1CCc2nc(-c3cccc4[nH]cc(C)c34)nc(N3C[C@H](C)N(CC(N)=O)C[C@H]3C)c2C1 (racemic)
1

Form field: pIC50 at least 7? Entry: "[2H]C1([2H])c2c(C)cc(-c3c(CC)cccc3CC)nc2CCN1c1c(Cl)c(C2CC2)nn1C"
-1

Form field: pIC50 at least 7? Entry: "CO[C@@H]1CCN(c2nc(-c3c(C)ccc4[nH]nc(C)c34)nc3c2CN(c2c(F)c(C(F)F)nn2C)CC3)CC1(C)C"
1

Form field: pIC50 at least 7? Entry: "Cc1ccccc1N1CCc2nc(-c3c(C)cccc3C)nc(N(C)CC(C)(C)O)c2C1"
-1

Form field: pIC50 at least 7? Entry: Cc1ccc2[nH]nc(C)c2c1-c1nc2c(c(N3CC[C@@H]4OC[C@]4(C)C3)n1)CN(c1c(Cl)c(C3CC3)nn1C)CC2 (racemic)
1

Form field: pIC50 at least 7? Entry: "CO[C@H]1CCN(c2nc(-c3c(C(C)C)ccc4[nH]ncc34)nc3c2CN(c2cc(C(C)C)nn2C)CC3)CC1(C)C"
1

Form field: pIC50 at least 7? Entry: "CO[C@@H]1CCN(c2nc(-c3c(C)ccc4[nH]nc(C)c34)nc3c2CN(c2cc(C4CC4)nn2C)CC3)CC1(C)C"
1

----------
Test: physchem
Details: oil or lipid, thermodynamic from solid, 24 hr Equilibrium Solubility
TEST READOUT: solubility thermodynamic at 24 h

Which value of solubility thermodynamic at 24 h has been reported for "CO[C@H]1C[C@H]2CC[C@@H](C1)N2c1nc(-c2c(C)ccc3[nH]nc(C)c23)nc2c1CN(c1cc(C(C)C)ccc1C)CC2" in the records?
> 26.5 mg/mL
